# ASSAY PROCEDURE: Rat in vivo study: plasma pharmacokinetics of MRE-269 after oral capsule dosing
# Design: species or system Sprague-Dawley rat
# COND: MRE-269 in plasma; male Sprague-Dawley rat, oral, HPMC capsule, 1 mg/capsule/body
MEASURE: AUC(0-t)

Enquiry: Using the record for CC(C)N(CCCCOCC(=O)O)c1cnc(-c2ccccc2)c(-c2ccccc2)n1 [MRE-269, reference compound] , state its measured AUC(0-t).
Return: 5620 ng·h/mL

====

# ASSAY PROCEDURE: Rat in vivo study: plasma pharmacokinetics of MRE-269 after oral capsule dosing
# Design: species or system Sprague-Dawley rat
# COND: rat, in vivo, po
# Description: Qualicaps, Nara, Japan) and given orally to male Sprague-Dawley rat (Japan SLC, Sizuoka, Japan) at a dose level of 1 mg/capsule/body. […] • The concentration of MRE-269 in plasma sample was determined by high performance liquid chromatography (HPLC) tandem mass spectrometry (LC-MS/MS). […] Relative bioavailability (BA) to MRE-269 was calculated according to the following equation. […]
MEASURE: tmax (h)
State just the number; it will be interpreted in h.

Enquiry: Using the record for CC(C)N(CCCCOCC(=O)[O-])c1cnc(-c2ccccc2)c(-c2ccccc2)n1.[Na+] [Sodium salt] , state its measured tmax.
Return: 7.50

Enquiry: Using the record for CC(C)N(CCCCOCC(=O)[O-])c1cnc(-c2ccccc2)c(-c2ccccc2)n1.CC(C)N(CCCCOCC(=O)[O-])c1cnc(-c2ccccc2)c(-c2ccccc2)n1.[Ca+2] [Calcium salt (Pattern 1)] , state its measured tmax.
Return: 7.50

Enquiry: Using the record for CC(C)N(CCCCOCC(=O)O)c1cnc(-c2ccccc2)c(-c2ccccc2)n1.O=S(=O)(O)CCS(=O)(=O)O [1,2-Ethanedisulfonate salt (Pattern A)] , state its measured tmax.
Return: 3.10

Enquiry: Using the record for CC(C)N(CCCCOCC(=O)[O-])c1cnc(-c2ccccc2)c(-c2ccccc2)n1.[K+] [Potassium salt] , state its measured tmax.
Return: 3.25
